Exercise: state measured Growth Rate for each of the compounds provided.
test system: Fibroblast; test: Incucyte cell viability with human fibroblast; assay type: toxicity, cell-based; settings: 18 h, 10 µM, compound concentration 10 uM, replicate number 2, timepoint 18 hours; note: filed as whole numbers so only -1 and 0 and 1 occur
Note: the reply should be a number with no unit written.

For record C[C@H](NC(=O)c1cnc2n1[C@](C)(Cc1ccc(C#N)cc1)C(=O)N2c1cc(Cl)c(F)c(Cl)c1)C(=O)NC1(c2ccccn2)CC1 the listed Growth Rate is 0

Record CC(C)OC(=O)N1CCC(Oc2ncnc3c2cnn3-c2ccc(S(C)(=O)=O)cc2F)CC1 . Reported Growth Rate: 0

Lab book: Growth Rate of COc1cc(C(=O)NS(=O)(=O)c2ccccc2C)ccc1Cc1cn(C)c2ccc(NC(=O)OC3CCCC3)cc12 noted as 0

Growth Rate recorded for this compound, O=S1(=O)c2cccc3cccc(c23)N1CCCN1CCN(c2ccc(F)cc2)CC1 , is 0

Record COc1ccccc1CN[C@H]1C2CCN(CC2)[C@H]1C(c1ccccc1)c1ccccc1 , field Growth Rate: 0

Looking up C=CC(=O)Nc1ccc2[nH]c(=O)n(C3CCN(Cc4ccc(-c5nc6cc[nH]c(=O)c6cc5-c5ccccc5)cc4)CC3)c2c1 , I found its Growth Rate recorded as 0

Recorded result, CN(c1ccccc1CNc1nc(Nc2ccc3c(c2)CC(=O)N3)ncc1C(F)(F)F)S(C)(=O)=O , Growth Rate: 1

Field Growth Rate (entry CC(C)Oc1ccc(-c2c[nH]cc2CN(C)CCN)cc1 ) reads 0

* * *

tested on: U2OS; assay: Multiplex assay against U2OS; type: toxicity, cell-based; conditions: human, 48 h, 10 µM, compound concentration 10 uM, replicate 1
Answer each item with its documented Total Cell Count.
Could you keep your reply to the number by itself?

Entry CC(C)NC(=O)N1CC[C@H](NC2=Nc3cc(F)ccc3N(CC(F)F)c3ccc(Cl)cc32)C1 — recorded Total Cell Count = 160

Total Cell Count reported for this molecule CCCSc1nc(N[C@@H]2C[C@H]2c2ccc(F)c(F)c2)c2nnn([C@@H]3C[C@H](OCCO)[C@@H](O)[C@H]3O)c2n1 : 230

What the record says about Cc1c[nH]c2nccc(Oc3c(F)cc(Nc4cc(Cl)nc(N)n4)cc3F)c12 : Total Cell Count is 132

* * *

Consider the following compounds; for each one, report its Population Mitotic Cells (%).
tested on: U2OS; experiment: Multiplex assay against U2OS; format: toxicity, cell-based; conditions: human, 48 h, 1 µM, compound concentration 1 uM, replicate 1
# output: bare number, implied unit %

Form field Population Mitotic Cells (%), entry CC(C)Oc1ccccc1C(=O)Nc1ccccc1C(=O)Nc1cccc(S(=O)(=O)C(F)(F)F)c1 : 18

Quick note, Population Mitotic Cells (%) for C[C@]12CC[C@@H]3c4ccc(O)cc4CC[C@H]3[C@@H]1CC[C@@H]2O landed at 68

The recorded Population Mitotic Cells (%) for CC(C)NC(=O)N1CC[C@H](NC2=Nc3cc(F)ccc3N(CC(F)F)c3ccc(Cl)cc32)C1 is 47

Kindly note the recorded Population Mitotic Cells (%) for COc1ccccc1CN[C@H]1C2CCN(CC2)[C@H]1C(c1ccccc1)c1ccccc1 , which is 20

Form field Population Mitotic Cells (%), entry CCCSc1nc(N[C@@H]2C[C@H]2c2ccc(F)c(F)c2)c2nnn([C@@H]3C[C@H](OCCO)[C@@H](O)[C@H]3O)c2n1 : 30

Consider Cc1ccc2c(c1)c1c(n2CCc2ccc(C)nc2)CCN(C)C1 [LATREPIRDINE] . Its measured Population Mitotic Cells (%) is 59

Noted for Cc1ccc(C)c(Oc2ccncc2C(=O)N2CCN(C3CC3)c3ccccc32)c1 : its Population Mitotic Cells (%) reads 53

The compound listed as CCc1nn(CCCN2CCN(c3cccc(Cl)c3)CC2)c(=O)n1CCOc1ccccc1.Cl [NEFAZODONE HYDROCHLORIDE] has a reported Population Mitotic Cells (%) of 53

The recorded Population Mitotic Cells (%) for entry CCc1ccc(OCc2ccccc2C(=O)Nc2ccc3nc(C)cc(N)c3c2)cc1.Cl equals 3

Reported Population Mitotic Cells (%) of CC(C)OC(=O)N1CCC(Oc2ncnc3c2cnn3-c2ccc(S(C)(=O)=O)cc2F)CC1 : 72

// field: Population Mitotic Cells (%); key: COC(=O)C1=C(C)NC(C)=C(C(=O)OCCCN2CCC(c3ccccc3)(c3ccccc3)CC2)[C@H]1c1cccc([N+](=O)[O-])c1 ; value = 21

Summary for this compound, O=C(c1cc2c(cc1F)OC(c1ccc(F)cc1)(c1ccc(Cl)cc1Cl)O2)N1CCOCC1 (configuration not stated) : Population Mitotic Cells (%) is 37

GET /value?item= Cl.O=C(O)c1cc(-c2ccc(C3CCNCC3)cc2)c2ccc(-c3ccc(C(F)(F)F)cc3)cc2c1 &field=Population Mitotic Cells (%) returns 82

Per the record, CNC(=O)Nc1ccc(-c2nc(N3CC4CCC(C3)O4)c3cnn(C4CCC5(CC4)OCCO5)c3n2)cc1 has Population Mitotic Cells (%) of 50

Per the records, this compound ( Cc1ccccc1C(c1ccccc1C)N1C2CCC1CC(O)(c1ccccc1)C2 (configuration not stated) ) has Population Mitotic Cells (%) equal to 68

The compound identified as Cc1cccc(CN2CCN(C(c3ccccc3)c3ccc(Cl)cc3)CC2)c1.Cl.Cl (configuration not stated) registered its Population Mitotic Cells (%) at 69

Record Cc1c[nH]c2nccc(Oc3c(F)cc(Nc4cc(Cl)nc(N)n4)cc3F)c12 , field Population Mitotic Cells (%): 39

* * *

For each of the molecules below, state its Population Pyknosed Nuclei (%).
test system: Fibroblast; experiment: Multiplex assay against human fibroblast; format: toxicity, cell-based; details: 24 h, 1 µM, compound concentration 1 uM, replicate 1
Reply numerically in %, unit not repeated.

The molecule Cc1ccccc1C(c1ccccc1C)N1C2CCC1CC(O)(c1ccccc1)C2 (stereo not drawn) , when measured on Fibroblast, yielded Population Pyknosed Nuclei (%) of 28

Bench note, Fibroblast: Cc1nc(N2CC[C@H](O)C2)ncc1-c1cc(C(F)(F)F)cc2[nH]ncc12 , Population Pyknosed Nuclei (%) reads 22

Param item: CCCSc1nc(N[C@@H]2C[C@H]2c2ccc(F)c(F)c2)c2nnn([C@@H]3C[C@H](OCCO)[C@@H](O)[C@H]3O)c2n1 ; param system: Fibroblast; output Population Pyknosed Nuclei (%): 19

Test item COc1ccc(-c2ccc3ncc4c(c3c2)n(-c2ccc(N3CCNCC3)c(C(F)(F)F)c2)c(=O)n4C)cn1.O=C(O)/C=C\C(=O)O ; Fibroblast; reported Population Pyknosed Nuclei (%) was 41

Log: Fibroblast, molecule Cc1c[nH]c2nccc(Oc3c(F)cc(Nc4cc(Cl)nc(N)n4)cc3F)c12 , Population Pyknosed Nuclei (%) = 27

Record CNC(=O)Nc1ccc(-c2nc(N3CC4CCC(C3)O4)c3cnn(C4CCC5(CC4)OCCO5)c3n2)cc1 ; system Fibroblast; Population Pyknosed Nuclei (%) = 35

Value (Population Pyknosed Nuclei (%), Fibroblast) for record COC(=O)C1=C(C)NC(C)=C(C(=O)OCCCN2CCC(c3ccccc3)(c3ccccc3)CC2)[C@H]1c1cccc([N+](=O)[O-])c1 = 20

Population Pyknosed Nuclei (%) of CCOC(=O)Nc1cc(-c2ccc(C)c(NS(C)(=O)=O)c2)nn2c(C)nnc12 , assay on Fibroblast, is 12

* * *

system: HEK-293T; assay: Multiplex assay against HEK293T; type: toxicity, cell-based; conditions: human, 12 h, 1 µM, compound concentration 1 uM, replicate 2
readout type: Population Fragmented Nuclei (%)
Your answer is read as %, so omit the unit and give the number.

Data point: CNC(=O)Nc1ccc(-c2nc(N3CC4CCC(C3)O4)c3cnn(C4CCC5(CC4)OCCO5)c3n2)cc1 ; Population Fragmented Nuclei (%) = 9

The recorded Population Fragmented Nuclei (%) for C=CC(=O)Nc1ccc2[nH]c(=O)n(C3CCN(Cc4ccc(-c5nc6cc[nH]c(=O)c6cc5-c5ccccc5)cc4)CC3)c2c1 is 7

The recorded Population Fragmented Nuclei (%) for CC(C)(C)NC[C@H](O)COc1nsnc1N1CCOCC1 is 5

The reported Population Fragmented Nuclei (%) of the molecule CC(C)Oc1ccccc1C(=O)Nc1ccccc1C(=O)Nc1cccc(S(=O)(=O)C(F)(F)F)c1 was 7

So for CCCSc1nc(N[C@@H]2C[C@H]2c2ccc(F)c(F)c2)c2nnn([C@@H]3C[C@H](OCCO)[C@@H](O)[C@H]3O)c2n1 , the logged Population Fragmented Nuclei (%) turned out to be 3

The molecule CC(C)OC(=O)N1CCC(Oc2ncnc3c2cnn3-c2ccc(S(C)(=O)=O)cc2F)CC1 showed Population Fragmented Nuclei (%) equal to 5

Quick note, Population Fragmented Nuclei (%) for Cc1ccc2c(c1)c1c(n2CCc2ccc(C)nc2)CCN(C)C1 [LATREPIRDINE] landed at 6

Reported Population Fragmented Nuclei (%) ( CC(C)NC(=O)N1CC[C@H](NC2=Nc3cc(F)ccc3N(CC(F)F)c3ccc(Cl)cc32)C1 ) = 4

The recorded Population Fragmented Nuclei (%) for O=C(c1cc2c(cc1F)OC(c1ccc(F)cc1)(c1ccc(Cl)cc1Cl)O2)N1CCOCC1 (configuration not stated) is 5

The molecule identified as COC(=O)C1=C(C)NC(C)=C(C(=O)OCCCN2CCC(c3ccccc3)(c3ccccc3)CC2)[C@H]1c1cccc([N+](=O)[O-])c1 registered its Population Fragmented Nuclei (%) at 5

Documented Population Fragmented Nuclei (%) of C[C@]12CC[C@@H]3c4ccc(O)cc4CC[C@H]3[C@@H]1CC[C@@H]2O : 7

Input CCc1ccc(OCc2ccccc2C(=O)Nc2ccc3nc(C)cc(N)c3c2)cc1.Cl . Output Population Fragmented Nuclei (%): 8

Memo: Cc1cccc(CN2CCN(C(c3ccccc3)c3ccc(Cl)cc3)CC2)c1.Cl.Cl (configuration not stated) , reported Population Fragmented Nuclei (%): 6

Looking up CC1=C(C(=O)Nc2cc3cn[nH]c3cc2F)C(c2ccc(C(F)(F)F)cc2)CC(=O)N1 (configuration not stated) , I found its Population Fragmented Nuclei (%) recorded as 12

Measured Population Fragmented Nuclei (%), Cl.O=C(O)c1cc(-c2ccc(C3CCNCC3)cc2)c2ccc(-c3ccc(C(F)(F)F)cc3)cc2c1 : 8

According to the records, this molecule CNC(=O)Nc1ccc2c(c1)[C@@]1(CC2)OC(=O)N(CC(=O)N(Cc2ccc(F)cc2)[C@@H](C)C(F)(F)F)C1=O displays Population Fragmented Nuclei (%) of 4

Entry CC(C)CC(=O)Nc1[nH]nc2c1CN(C(=O)C1CCN(C)CC1)C2(C)C ; Population Fragmented Nuclei (%) = 9
